Origin of measurements: paper PMC4931022

# assayedTarget: KDM4E (Homo sapiens)
# Construct: His6 (N); made in house; host or cells: Escherichia coli
# Sequence (B2RXH2 1-337): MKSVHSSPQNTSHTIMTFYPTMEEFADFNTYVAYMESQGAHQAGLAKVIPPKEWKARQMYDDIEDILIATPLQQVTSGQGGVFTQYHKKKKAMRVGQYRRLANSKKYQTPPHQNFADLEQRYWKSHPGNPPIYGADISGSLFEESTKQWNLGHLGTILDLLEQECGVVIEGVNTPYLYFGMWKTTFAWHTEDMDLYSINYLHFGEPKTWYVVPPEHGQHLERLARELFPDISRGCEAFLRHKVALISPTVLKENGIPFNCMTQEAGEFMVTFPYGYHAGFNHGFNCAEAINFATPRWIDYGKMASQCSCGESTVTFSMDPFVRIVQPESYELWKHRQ
# assayName: Formaldehyde dehydrogenase-coupled demethylation assay, KDM4E
# Type: biochemical
# conditionNotes: KDM4E; calculated from the average kcat and KM values; μM^−1 s^−1 for this quantity
attributeMeasured: kcat/KM

Return kcat/KM (reported value) for this substance: ARTKQTAR-Rme2a-STGGKA (ARTKQTARRSTGGKA; asymmetric dimethylarginine at 9; C-terminal amide) [H3(1-15)K9Rme2a, histone H3 fragment with asymmetric dimethylarginine replacing methylated K9]
70.4 × 10^−6

Return kcat/KM (reported value) for this substance: SG-Rme2a-GKGGKGLGKGGA [H4(1-15)R3me2a, 'natural' histone H4 residues 1-15 peptide asymmetrically dimethylated at R3]
17.7 × 10^−6

Return kcat/KM (reported value) for this substance: ARTKQTAR-Rme2s-STGGKA (ARTKQTARRSTGGKA; symmetric dimethylarginine at 9; C-terminal amide) [H3(1-15)K9Rme2s, histone H3 fragment with symmetric dimethylarginine replacing methylated K9]
85.9 × 10^−6

Return kcat/KM (reported value) for this substance: ARTKQTAR-Rme-STGGKA (ARTKQTARRSTGGKA; monomethylarginine at 9; C-terminal amide) [H3(1-15)K9Rme, histone H3 fragment with monomethylarginine replacing methylated K9]
15.9 × 10^−6

Return kcat/KM (reported value) for this substance: A-Rme2a-TKQTARKSTGGKA [H3(1-15)R2me2a, 'natural' histone H3 peptide asymmetrically dimethylated at R2]
114.0 × 10^−6

###

# assayedTarget: KDM5C (Homo sapiens)
# Construct: KDM5C1–765 was produced as an N-terminally His6-tagged protein in Sf9 cells; His6 (N); made in house; host or cells: Sf9 cells (provided by the Structural Genomics Consortium)
# Sequence (P41229 1-765): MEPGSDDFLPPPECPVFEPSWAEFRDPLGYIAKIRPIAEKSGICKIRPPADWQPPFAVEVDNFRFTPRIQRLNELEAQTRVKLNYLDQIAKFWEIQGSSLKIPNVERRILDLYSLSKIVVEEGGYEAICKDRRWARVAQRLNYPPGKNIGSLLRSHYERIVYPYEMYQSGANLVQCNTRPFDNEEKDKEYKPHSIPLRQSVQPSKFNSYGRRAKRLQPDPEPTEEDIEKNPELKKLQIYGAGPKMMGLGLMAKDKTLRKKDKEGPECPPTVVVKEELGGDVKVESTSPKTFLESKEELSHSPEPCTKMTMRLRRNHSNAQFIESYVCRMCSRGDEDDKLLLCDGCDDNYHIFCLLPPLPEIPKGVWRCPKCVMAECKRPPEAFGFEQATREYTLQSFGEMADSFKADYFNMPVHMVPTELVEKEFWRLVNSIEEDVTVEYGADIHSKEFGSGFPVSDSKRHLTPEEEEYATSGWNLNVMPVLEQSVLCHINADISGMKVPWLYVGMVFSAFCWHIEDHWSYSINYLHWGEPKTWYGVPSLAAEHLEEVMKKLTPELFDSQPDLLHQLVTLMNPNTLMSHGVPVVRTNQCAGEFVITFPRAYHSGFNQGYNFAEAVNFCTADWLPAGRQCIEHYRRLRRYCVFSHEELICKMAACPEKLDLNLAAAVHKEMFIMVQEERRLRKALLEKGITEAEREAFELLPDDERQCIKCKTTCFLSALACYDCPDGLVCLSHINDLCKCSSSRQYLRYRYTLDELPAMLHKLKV
# assayName: MALDI MS activity assay, recombinant KDM5C catalytic domain
# Assay type: biochemical
# conditionNotes: KDM5C 2 μM, peptide 10 μM, 1 h, 37 °C, 2OG 100 μM, ascorbate 100 μM, Fe(II) 10 μM, 50 mM HEPES pH 7.5; MALDI-TOF MS, −14 Da shift
attributeMeasured: observed arginine demethylation activity

Before answering, review these 5 worked examples.
Return observed arginine demethylation activity (reported value) for this substance: KQLATKAA-Rme-KSAPAT [H3 (18–32) R26me, 'natural' histone H3 peptide monomethylated at R26]
−

Return observed arginine demethylation activity (reported value) for this substance: STGGKAP-Rme2a-KQLATKA [H3 (10–24) R17me2a, 'natural' histone H3 peptide asymmetrically dimethylated at R17]
−

Return observed arginine demethylation activity (reported value) for this substance: SG-Rme-GKGGKGLGKGGAK [H4 (1–15) R3me, 'natural' histone H4 peptide monomethylated at R3]
−

Return observed arginine demethylation activity (reported value) for this substance: A-Rme2a-TKQTARKSTGGKA [H3(1-15)R2me2a, 'natural' histone H3 peptide asymmetrically dimethylated at R2]
+

Return observed arginine demethylation activity (reported value) for this substance: KQLATKAA-Rme2a-KSAPAT [H3 (18–32) R26me2a, 'natural' histone H3 peptide asymmetrically dimethylated at R26]
−

Next:
Return observed arginine demethylation activity (reported value) for this substance: STGGKAP-Rme-KQLATKA [H3 (10–24) R17me, 'natural' histone H3 peptide monomethylated at R17]
−
